Molecular target: SALL4 ZFC4 WT (HT-SELEX) (Mus musculus, UniProt Q8BX22 870-940)
Sequence: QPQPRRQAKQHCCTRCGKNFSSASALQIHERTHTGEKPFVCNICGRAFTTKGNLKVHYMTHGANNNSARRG
Experiment: HT-SELEX; high values mean tight binding
Conditions: protein: recombinant; vector His6-GST; dsDNA, one strand shown
Class boundaries, taken from values of binding signal, are as follows: 1: < 0.7 fold-change vs cycle 0; 2: ≥ 0.7 fold-change vs cycle 0 and < 1 fold-change vs cycle 0; 3: ≥ 1 fold-change vs cycle 0

Returns: class label. Input: `CTGGAA` 2

Returns: class label. Input: `CCCTTA` 2

Returns: class label. Input: `CTGGAC` 1

Returns: class label. Input: `CTAGAG` 2

Returns: class label. Input: `CCCGTA` 1

Returns: class label. Input: `TAGTCA` 3

Returns: class label. Input: `GGTGTA` 2

Returns: class label. Input: `CTACGA` 1

Returns: class label. Input: `CGAAAA` 2

Returns: class label. Input: `ATAGTC` 3

Returns: class label. Input: `GGACAC` 1

Returns: class label. Input: `AGGGAC` 1

Returns: class label. Input: `ATTGGA` 3

Returns: class label. Input: `CATGAC` 2

Returns: class label. Input: `ACTACT` 3

Returns: class label. Input: `GTAGGA` 2

Returns: class label. Input: `AGCCAT` 1

Returns: class label. Input: `CGTTAG` 2

Returns: class label. Input: `CTTGAA` 3

Returns: class label. Input: `AAAGAG` 3

Returns: class label. Input: `GACTGA` 2

Returns: class label. Input: `CCTGAC` 1

Returns: class label. Input: `GAAATC` 3

Returns: class label. Input: `CCTAGA` 2

Returns: class label. Input: `CACAGG` 1

Returns: class label. Input: `ATGAAA` 3

Returns: class label. Input: `GGAAAA` 3

Returns: class label. Input: `GCTCTA` 1

Returns: class label. Input: `ATAATA` 3

Returns: class label. Input: `CAGCAA` 1

Returns: class label. Input: `CTATAG` 3

Returns: class label. Input: `ATCTGA` 3

Returns: class label. Input: `GATCCA` 2

Returns: class label. Input: `AGAATC` 3

Returns: class label. Input: `ACTTCA` 3

Returns: class label. Input: `GTCAGA` 2

Returns: class label. Input: `GCACTA` 1

Returns: class label. Input: `TATCGA` 3

Returns: class label. Input: `AGTGAT` 3

Returns: class label. Input: `AAAATG` 3

Returns: class label. Input: `CGAAAG` 1

Returns: class label. Input: `ATCCGG` 1

Returns: class label. Input: `CATCCC` 1

Returns: class label. Input: `TATCAA` 3

Returns: class label. Input: `AATTTG` 3

Returns: class label. Input: `AAAAGA` 3

Returns: class label. Input: `AAGTCA` 3

Returns: class label. Input: `CACGAA` 1

Returns: class label. Input: `ACTACG` 1

Returns: class label. Input: `AAAACT` 3

Returns: class label. Input: `GAGAAC` 2

Returns: class label. Input: `GACCAC` 1

Returns: class label. Input: `TCAACA` 3

Returns: class label. Input: `GGAGAA` 2

Returns: class label. Input: `ACCTAT` 3

Returns: class label. Input: `CCTACC` 1

Returns: class label. Input: `AGTAGG` 2

Returns: class label. Input: `CCAGAC` 1

Returns: class label. Input: `AGTTCA` 3

Returns: class label. Input: `CTACCA` 2

Returns: class label. Input: `GCATCA` 1

Returns: class label. Input: `GTCCCA` 1

Returns: class label. Input: `TGATAA` 3

Returns: class label. Input: `GAAGTC` 2

Returns: class label. Input: `TACACA` 3

Returns: class label. Input: `ACTCGA` 2

Returns: class label. Input: `AGGTTC` 2

Returns: class label. Input: `GCTTCA` 1

Returns: class label. Input: `AAACCG` 1

Returns: class label. Input: `CCTAGG` 1

Returns: class label. Input: `ACCTAA` 3

Returns: class label. Input: `AGGAAG` 2

Returns: class label. Input: `AGAGAA` 3

Returns: class label. Input: `ACCACT` 2

Returns: class label. Input: `ACCCCT` 1

Returns: class label. Input: `GACCTC` 1

Returns: class label. Input: `AGTACG` 2

Returns: class label. Input: `AGGCAT` 1

Returns: class label. Input: `AGGTAC` 2

Returns: class label. Input: `CTACAG` 2

Returns: class label. Input: `ACACTA` 3

Returns: class label. Input: `ATAACA` 3

Returns: class label. Input: `ACGGAT` 2

Returns: class label. Input: `CTGAAA` 3

Returns: class label. Input: `ACATGG` 2

Returns: class label. Input: `AATATT` 3

Returns: class label. Input: `AACAGT` 3

Returns: class label. Input: `GACGGA` 1

Returns: class label. Input: `AAATAT` 3

Returns: class label. Input: `AACCTA` 3

Returns: class label. Input: `ATGCAA` 3

Returns: class label. Input: `GACAGA` 2

Returns: class label. Input: `ATCTAC` 3
